Value source: the supplement of paper PMC4466140

experimental.system: SpSla1-D3
assay.remarks: SPOT peptide array binding signal intensity (averaged, normalized) (arbitrary units (background-subtracted, floor 0; scale differs between SH3 domains)); higher = stronger binding of the SH3 domain to the peptide
Exercise: for every item that follows, state its recorded SPOT peptide array binding signal intensity.
Please reply with the value in numeric form only.

Could you tell me which SPOT peptide array binding signal intensity is on file for EREKALPPIPFTTTL ? 0.5

What do you have for RRASLFPRDPKRLRP ? 19

What do you have for YVRRRPRVRLEPLLS ? 87

What do you have for TIRRRAPLSLLESHT ? 4.5

What do you have for KKIRLIFTYPSTVGR ? 49
